- target system: Ba/F3 stable cells (Homo sapiens, UniProt P00533, DUP767-769, cells depend on it)
- Construct: EC50 Ba/F3-EGFR V769-D770insASV; other: Ba/F3-EGFR V769-D770insASV cells, 72 h, CCK-8
- Sequence (P00533 with tags, fused parts or gaps DUP767-769): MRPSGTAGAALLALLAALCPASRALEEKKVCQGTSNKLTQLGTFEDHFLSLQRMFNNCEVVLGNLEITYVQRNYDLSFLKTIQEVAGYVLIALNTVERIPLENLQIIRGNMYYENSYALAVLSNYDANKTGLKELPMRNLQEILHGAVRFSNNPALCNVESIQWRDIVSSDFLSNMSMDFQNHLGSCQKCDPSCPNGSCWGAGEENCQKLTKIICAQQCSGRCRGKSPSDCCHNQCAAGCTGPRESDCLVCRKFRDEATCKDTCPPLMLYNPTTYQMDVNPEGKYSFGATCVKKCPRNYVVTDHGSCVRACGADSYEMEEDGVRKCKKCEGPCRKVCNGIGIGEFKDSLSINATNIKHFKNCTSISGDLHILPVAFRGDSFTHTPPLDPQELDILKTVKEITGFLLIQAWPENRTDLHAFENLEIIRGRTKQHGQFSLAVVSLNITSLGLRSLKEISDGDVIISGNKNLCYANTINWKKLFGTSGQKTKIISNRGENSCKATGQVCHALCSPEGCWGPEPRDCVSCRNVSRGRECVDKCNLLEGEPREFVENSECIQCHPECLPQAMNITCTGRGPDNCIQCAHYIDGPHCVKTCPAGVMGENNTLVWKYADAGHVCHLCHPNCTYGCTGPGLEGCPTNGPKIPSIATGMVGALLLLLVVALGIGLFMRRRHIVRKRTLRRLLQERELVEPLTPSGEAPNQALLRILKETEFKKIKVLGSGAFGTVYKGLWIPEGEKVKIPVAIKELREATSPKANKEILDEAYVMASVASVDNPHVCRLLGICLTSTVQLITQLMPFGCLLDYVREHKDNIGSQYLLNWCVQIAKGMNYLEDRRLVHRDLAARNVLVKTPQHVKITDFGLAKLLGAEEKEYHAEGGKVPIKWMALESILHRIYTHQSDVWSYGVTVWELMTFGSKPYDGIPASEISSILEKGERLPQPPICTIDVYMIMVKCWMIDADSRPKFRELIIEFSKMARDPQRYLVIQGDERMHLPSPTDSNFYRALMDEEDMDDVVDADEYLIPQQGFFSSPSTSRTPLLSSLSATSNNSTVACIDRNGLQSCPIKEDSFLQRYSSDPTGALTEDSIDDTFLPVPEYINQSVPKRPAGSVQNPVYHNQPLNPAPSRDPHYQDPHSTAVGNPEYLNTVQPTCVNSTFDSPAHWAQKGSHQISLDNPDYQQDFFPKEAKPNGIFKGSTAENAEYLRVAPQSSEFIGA
- assay summary: EC50 assay: Ba/F3 stable cell proliferation (CCK-8, 72 h)
- condition: Ba/F3-EGFR V769-D770insASV cells
- Experimental: 4,000 Ba/F3 stable cells/90 μL/well were plated onto 96-well cell culture plate (Grenier, Cat.No. 655180) and incubated at 37° C. with a humidified atmosphere of 5% CO2 for 2 h. Then the cells were treated with 10 μL compounds at serial titration. […] 10 μL the cell proliferation reagent CCK-8 (Dojindo, Cat.No. CK04 1000T) was added into each well and incubated the plate at 37° C. for 4 hours, the GD value was measured by SPECTRAmax plus (Molecular Devices) at 450 nm. […]
Listed compounds paired with reported EC50

Use the examples below as a reference point.
{"compound": "C=CC(=O)N1CCC(Oc2cc3c(Nc4ccc5ccccc5c4)ncnc3cc2OC)CC1 [Compound 148]", "value observed": "≤ 0.2 µM"}
{"compound": "C=CC(=O)N1CCC(Oc2cc3c(NCc4cccc(Br)c4)ncnc3cc2OC)CC1 [Compound 120]", "value observed": "≤ 0.2 µM"}
{"compound": "C=CC(=O)NCC1COc2cc3ncnc(Nc4ccc(Cl)c(Cl)c4F)c3cc21 (centres unmarked) [Compound 34]", "value observed": "0.2 to 1 µM"}
{"compound": "C=CC(=O)N1CCC(Oc2cc3c(NCc4ccc(Cl)c(Cl)c4)ncnc3cc2OC)CC1 [Compound 115]", "value observed": "> 1 µM"}
{"compound": "C=CC(=O)N1CCC(Oc2cc3c(NC(C(N)=O)c4cccc(Cl)c4)ncnc3cc2OC)CC1 (centres unmarked) [Compound 127]", "value observed": "0.2 to 1 µM"}
{"compound": "C=CC(=O)N[C@H]1C[C@@H](Oc2cc3c(Nc4ccc(Cl)c(Cl)c4F)ncnc3cc2O[C@H]2CCOC2)C1 [Compound 99]", "value observed": "≤ 0.2 µM"}
{"compound": "C=CC(=O)N[C@H]1C[C@@H](Oc2cc3c(Nc4ccc(Cl)c(Cl)c4)ncnc3cc2OC)C1 [Compound 82]", "value observed": "≤ 0.2 µM"}
{"compound": "C=CC(=O)N1CCC(Oc2cc3c(NCc4ccccc4)ncnc3cc2OC)CC1 [Compound 123]", "value observed": "≤ 0.2 µM"}

Answer with the recorded EC50 for the compound listed here: C=CC(=O)N1C2CCC1CC(Oc1cc3c(Nc4ccc(Cl)c(Cl)c4F)ncnc3cc1OC)C2 (centres unmarked) [Compound 177]
≤ 0.2 µM

Answer with the recorded EC50 for the compound listed here: C#CC(=O)N1CCC=C(c2ccc3ncnc(Nc4ccc(Cl)c(Cl)c4F)c3c2)C1 [Compound 62]
0.2 to 1 µM

Answer with the recorded EC50 for the compound listed here: C=CC(=O)N1CC(c2cc3c(Nc4ccc5ccccc5c4)ncnc3cc2OC)C1 [Compound 5]
≤ 0.2 µM

Answer with the recorded EC50 for the compound listed here: C#CC(=O)N1CCC(Oc2cc3c(Nc4cccc5ccccc45)ncnc3cc2OC)CC1 [Compound 54]
≤ 0.2 µM

Answer with the recorded EC50 for the compound listed here: C=CC(=O)N1CCC(Oc2cc3c(C(=O)NCc4ccc(F)cc4)ncnc3cc2OC)CC1 [Compound 94]
> 1 µM

Answer with the recorded EC50 for the compound listed here: C=CC(=O)N1CC(c2cc3c(Nc4ccc(Cl)c(Cl)c4F)ncnc3cc2OC)C1 [Compound 1]
≤ 0.2 µM

Answer with the recorded EC50 for the compound listed here: [2H]C([2H])([2H])Oc1cc2ncnc(Nc3ccc(Cl)c(Cl)c3F)c2cc1O[C@H]1C[C@@H](NC(=O)C=C)C1 [Compound 102]
≤ 0.2 µM

Answer with the recorded EC50 for the compound listed here: [2H]C([2H])([2H])n1cn/c(=N\c2ccc(Cl)c(Cl)c2F)c2cc3c(cc21)OCC3CNC(=O)C=C (centres unmarked) [Compound 35]
> 1 µM

Answer with the recorded EC50 for the compound listed here: C=CC(=O)N1CC(c2cc3c(Nc4ccc(Cl)c(Cl)c4F)ncnc3cc2O[C@@H]2CCOC2)C1 [Compound 29]
≤ 0.2 µM

---

- target system: Ba/F3 stable cells (Homo sapiens, UniProt P00533, DUP768-770, cells depend on it)
- Construct: EC50 Ba/F3-EGFR D770-N771insSVD; other: Ba/F3-EGFR D770-N771insSVD cells, 72 h, CCK-8
- Sequence (P00533 with tags, fused parts or gaps DUP768-770): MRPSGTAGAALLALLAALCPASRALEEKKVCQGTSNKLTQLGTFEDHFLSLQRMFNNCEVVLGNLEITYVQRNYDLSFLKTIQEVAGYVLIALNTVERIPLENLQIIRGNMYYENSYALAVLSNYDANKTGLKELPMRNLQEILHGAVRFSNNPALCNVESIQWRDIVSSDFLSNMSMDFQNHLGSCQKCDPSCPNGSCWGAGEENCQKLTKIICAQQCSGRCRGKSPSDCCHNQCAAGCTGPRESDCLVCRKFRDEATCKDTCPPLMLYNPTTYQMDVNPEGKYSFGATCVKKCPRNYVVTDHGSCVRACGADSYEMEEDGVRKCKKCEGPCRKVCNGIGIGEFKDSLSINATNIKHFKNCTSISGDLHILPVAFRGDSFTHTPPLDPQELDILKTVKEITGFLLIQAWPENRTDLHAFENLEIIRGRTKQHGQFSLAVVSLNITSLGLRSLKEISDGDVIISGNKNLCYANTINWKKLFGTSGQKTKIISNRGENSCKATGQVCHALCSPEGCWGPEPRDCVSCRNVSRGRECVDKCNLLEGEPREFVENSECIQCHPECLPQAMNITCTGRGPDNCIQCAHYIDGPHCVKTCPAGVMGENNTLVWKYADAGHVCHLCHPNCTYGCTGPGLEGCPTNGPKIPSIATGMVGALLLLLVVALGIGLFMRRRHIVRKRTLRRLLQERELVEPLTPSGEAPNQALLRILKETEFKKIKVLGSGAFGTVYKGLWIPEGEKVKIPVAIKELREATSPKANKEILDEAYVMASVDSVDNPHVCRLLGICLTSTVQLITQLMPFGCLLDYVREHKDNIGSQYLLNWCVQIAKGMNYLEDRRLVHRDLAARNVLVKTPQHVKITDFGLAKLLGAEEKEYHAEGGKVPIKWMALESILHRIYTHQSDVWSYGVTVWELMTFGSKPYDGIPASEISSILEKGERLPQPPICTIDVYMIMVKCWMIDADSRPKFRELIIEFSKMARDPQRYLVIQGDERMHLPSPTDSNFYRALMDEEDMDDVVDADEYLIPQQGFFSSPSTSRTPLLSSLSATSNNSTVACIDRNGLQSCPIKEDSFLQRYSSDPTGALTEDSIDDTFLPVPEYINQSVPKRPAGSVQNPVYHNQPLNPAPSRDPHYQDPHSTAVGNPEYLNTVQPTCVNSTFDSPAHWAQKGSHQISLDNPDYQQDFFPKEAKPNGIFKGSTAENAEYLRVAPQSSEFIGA
- assay summary: EC50 assay: Ba/F3 stable cell proliferation (CCK-8, 72 h)
- Assay type: cell-based
- condition: Ba/F3-EGFR D770-N771insSVD cells
pEC50: −log10 of the molar value.
attribute measured: pEC50

{"compound": "C#CC(=O)N1C2CCCC1CC(Oc1cc3c(Nc4ccc5ccccc5c4)ncnc3cc1OC)C2 (stereo not drawn)", "pEC50": "6.00 to 6.70"}
{"compound": "C=CC(=O)N1C2CCCC1CC(Oc1cc3c(Nc4ccc5ccccc5c4)ncnc3cc1OC)C2 (stereo not drawn)", "pEC50": "6.00 to 6.70"}

Please find the next compound below.
Answer with the recorded pEC50 for the compound listed here: C=CC(=O)N1CCC(Oc2cc3c(Nc4ccc5cnn(C)c5c4)ncnc3cc2OC)CC1
6.00 to 6.70

---

- target system: Ba/F3 stable cells (Homo sapiens, UniProt P00533, T790M/L858R, cells depend on it)
- Construct: EC50 Ba/F3-EGFR L858R-T790M; other: Ba/F3-EGFR L858R-T790M cells, 72 h, CCK-8
- Sequence (P00533 whole entry T790M/L858R): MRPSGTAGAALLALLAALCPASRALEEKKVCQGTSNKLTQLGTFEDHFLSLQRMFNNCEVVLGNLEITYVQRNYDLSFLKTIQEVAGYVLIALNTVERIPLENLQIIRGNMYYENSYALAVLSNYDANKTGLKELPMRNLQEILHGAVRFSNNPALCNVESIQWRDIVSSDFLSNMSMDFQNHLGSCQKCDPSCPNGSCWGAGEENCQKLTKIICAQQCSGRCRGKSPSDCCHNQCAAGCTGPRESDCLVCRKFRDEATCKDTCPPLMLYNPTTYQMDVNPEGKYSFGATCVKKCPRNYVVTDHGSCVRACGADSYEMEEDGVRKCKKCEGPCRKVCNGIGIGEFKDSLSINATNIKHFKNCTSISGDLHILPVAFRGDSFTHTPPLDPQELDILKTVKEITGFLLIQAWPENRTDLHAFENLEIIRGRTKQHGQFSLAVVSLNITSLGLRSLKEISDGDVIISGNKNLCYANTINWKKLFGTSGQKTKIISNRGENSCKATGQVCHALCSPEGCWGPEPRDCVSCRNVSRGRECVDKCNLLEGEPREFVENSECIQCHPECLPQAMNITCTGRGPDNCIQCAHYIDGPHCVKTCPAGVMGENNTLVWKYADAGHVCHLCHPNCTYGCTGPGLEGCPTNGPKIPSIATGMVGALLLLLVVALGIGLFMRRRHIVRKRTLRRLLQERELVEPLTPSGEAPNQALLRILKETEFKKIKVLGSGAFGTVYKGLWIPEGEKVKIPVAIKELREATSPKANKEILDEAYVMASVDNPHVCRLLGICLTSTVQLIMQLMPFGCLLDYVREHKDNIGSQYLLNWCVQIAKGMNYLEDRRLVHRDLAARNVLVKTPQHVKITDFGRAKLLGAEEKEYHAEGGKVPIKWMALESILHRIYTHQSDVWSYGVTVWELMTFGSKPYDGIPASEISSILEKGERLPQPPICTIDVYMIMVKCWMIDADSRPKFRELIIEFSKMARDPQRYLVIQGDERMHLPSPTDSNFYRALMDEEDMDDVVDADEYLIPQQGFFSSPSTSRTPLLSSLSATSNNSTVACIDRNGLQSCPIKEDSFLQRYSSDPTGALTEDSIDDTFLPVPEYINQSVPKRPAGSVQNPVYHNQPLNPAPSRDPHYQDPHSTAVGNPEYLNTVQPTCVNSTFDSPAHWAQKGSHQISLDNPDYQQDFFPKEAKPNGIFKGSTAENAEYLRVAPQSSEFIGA
- assay summary: EC50 assay: Ba/F3 stable cell proliferation (CCK-8, 72 h)
- condition: Ba/F3-EGFR L858R-T790M cells
pEC50: −log10 of the molar value.
attribute measured: pEC50

{"compound": "C=CC(=O)N1CCC(Oc2cc3c(NCc4ccc(F)cc4)ncnc3cc2OC)CC1", "pEC50": "< 6.00"}
{"compound": "C#CC(=O)N1CCC=C(c2ccc3ncnc(Nc4ccc(Cl)c(Cl)c4F)c3c2)C1", "pEC50": "6.00 to 6.70"}
{"compound": "C=CC(=O)N[C@H]1CC[C@H](Oc2cc3c(Nc4ccc(Cl)c(Cl)c4F)ncnc3cc2OC)CC1", "pEC50": "< 6.00"}
{"compound": "C=CC(=O)N1CCC(Oc2cc3c(C(=O)c4ccc(OC)cc4)ncnc3cc2OC)CC1", "pEC50": "< 6.00"}
{"compound": "C=CC(=O)NC1CC(Oc2cc3c(Nc4ccc(C)c5c4CCC5)ncnc3cc2OC)C1 (centres unmarked)", "pEC50": "< 6.00"}

Please find the next compound below.
Print Ba/F3 stable cells (Homo sapiens, UniProt P00533, T790M/L858R, cells depend on it) pEC50 for C#CC(=O)N[C@H]1C[C@H](Oc2cc3c(Nc4ccc5ccccc5c4)ncnc3cc2OC)C1 .
≥ 6.70

---

- target system: Ba/F3 stable cells (Homo sapiens, UniProt P00533, T790M/L858R, cells depend on it)
- Construct: EC50 Ba/F3-EGFR L858R-T790M; other: Ba/F3-EGFR L858R-T790M cells, 72 h, CCK-8
- assay summary: EC50 assay: Ba/F3 stable cell proliferation (CCK-8, 72 h)
- condition: Ba/F3-EGFR L858R-T790M cells
Listed compounds paired with reported EC50

{"structure as smiles": "C=CC(=O)N1CC(c2cc3c(Nc4ccc(Cl)c(Cl)c4F)ncnc3cc2OC)C1", "EC50": "≤ 200 nM"}
{"structure as smiles": "C=CC(=O)N1CCC(Oc2c(OC)cc3ncnc4c3c2NC(=O)N4c2ccc(Cl)c(Cl)c2)CC1", "EC50": "> 1000 nM"}
{"structure as smiles": "C=CC(=O)N1CCC(Oc2c(OC)cc3ncnc4c3c2C=CN4c2ccc(Cl)c(Cl)c2F)CC1", "EC50": "200 to 1000 nM"}
{"structure as smiles": "C=CC(=O)N[C@H]1C[C@@H](Oc2cc3c(Nc4ccc(Cl)c(Cl)c4F)ncnc3cc2OCCO)C1", "EC50": "200 to 1000 nM"}
{"structure as smiles": "C=CC(=O)N1CCC(Oc2cc3c(NCc4ccc(F)c(Cl)c4)ncnc3cc2OC)CC1", "EC50": "≤ 200 nM"}
{"structure as smiles": "C=CC(=O)N1CCC(Oc2cc3c(NCc4ccccc4Cl)ncnc3cc2OC)CC1", "EC50": "200 to 1000 nM"}

Please find the next compound below.
Answer with the recorded EC50 for the compound listed here: C=CC(=O)N1CCC(Oc2cc3c(Nc4cc5oc6ccccc6c5cc4OC)ncnc3cc2OC)CC1
> 1000 nM

---

Listed compounds paired with reported pEC50
- target system: Ba/F3 stable cells (Homo sapiens, UniProt P00533, DUP771-773, cells depend on it)
- Construct: EC50 Ba/F3-EGFR H773-V774insNPH; other: Ba/F3-EGFR H773-V774insNPH cells, 72 h, CCK-8
- Sequence (P00533 with tags, fused parts or gaps DUP771-773): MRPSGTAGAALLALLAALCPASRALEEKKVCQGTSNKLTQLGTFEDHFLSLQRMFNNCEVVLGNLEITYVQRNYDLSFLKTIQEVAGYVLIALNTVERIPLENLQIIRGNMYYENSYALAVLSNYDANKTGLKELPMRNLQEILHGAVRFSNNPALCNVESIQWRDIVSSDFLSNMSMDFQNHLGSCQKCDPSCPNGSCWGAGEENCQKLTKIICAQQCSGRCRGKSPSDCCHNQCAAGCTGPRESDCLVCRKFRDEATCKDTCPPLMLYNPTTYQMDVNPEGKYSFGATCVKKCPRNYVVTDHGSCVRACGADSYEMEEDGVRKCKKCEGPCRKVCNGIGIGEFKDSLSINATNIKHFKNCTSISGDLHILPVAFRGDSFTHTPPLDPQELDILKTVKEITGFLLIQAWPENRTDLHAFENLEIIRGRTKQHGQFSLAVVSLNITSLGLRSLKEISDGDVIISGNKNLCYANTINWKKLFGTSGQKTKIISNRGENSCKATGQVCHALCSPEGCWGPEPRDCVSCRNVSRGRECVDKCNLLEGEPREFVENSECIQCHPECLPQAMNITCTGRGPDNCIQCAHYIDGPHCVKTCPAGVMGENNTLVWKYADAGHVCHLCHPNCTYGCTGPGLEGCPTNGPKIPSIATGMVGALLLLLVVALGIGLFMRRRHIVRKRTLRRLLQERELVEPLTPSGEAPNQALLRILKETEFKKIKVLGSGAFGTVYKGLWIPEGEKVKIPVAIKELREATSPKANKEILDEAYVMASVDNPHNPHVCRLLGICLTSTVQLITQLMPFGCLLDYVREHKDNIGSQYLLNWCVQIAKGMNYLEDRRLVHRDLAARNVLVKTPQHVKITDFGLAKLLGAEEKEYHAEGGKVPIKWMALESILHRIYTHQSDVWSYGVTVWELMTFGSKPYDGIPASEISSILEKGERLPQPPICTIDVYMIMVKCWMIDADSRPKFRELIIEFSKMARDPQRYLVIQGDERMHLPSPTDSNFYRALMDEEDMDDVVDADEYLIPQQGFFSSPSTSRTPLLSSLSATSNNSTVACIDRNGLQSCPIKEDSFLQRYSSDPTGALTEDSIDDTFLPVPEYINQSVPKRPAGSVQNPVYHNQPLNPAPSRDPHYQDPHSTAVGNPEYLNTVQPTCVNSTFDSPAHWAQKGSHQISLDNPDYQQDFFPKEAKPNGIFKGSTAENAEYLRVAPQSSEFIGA
- assay summary: EC50 assay: Ba/F3 stable cell proliferation (CCK-8, 72 h)
- condition: Ba/F3-EGFR H773-V774insNPH cells
pEC50: −log10 of the molar value.

{"compound": "C=CC(=O)N1CC(c2cc3c(Nc4ccc(Cl)c(Cl)c4F)ncnc3cc2OCCCN2CCOCC2)C1", "value observed": "≥ 6.70"}

Print Ba/F3 stable cells (Homo sapiens, UniProt P00533, DUP771-773, cells depend on it) pEC50 for C=CC(=O)N1CC(c2cc3c(Nc4ccc(Cl)c(Cl)c4F)ncnc3cc2OC(F)F)C1 .
≥ 6.70

Print Ba/F3 stable cells (Homo sapiens, UniProt P00533, DUP771-773, cells depend on it) pEC50 for C=CC(=O)NC1COc2c(-c3cnc4ccccc4c3)c3c(N)ncnc3n2C1 (stereo not shown) .
< 6.00

Print Ba/F3 stable cells (Homo sapiens, UniProt P00533, DUP771-773, cells depend on it) pEC50 for C=CC(=O)N1CCC(Oc2cc3c(NCc4ccccc4F)ncnc3cc2OC)CC1 .
6.00 to 6.70
